The molecules listed here are annotated with their inhibition.
assay: displacement of TO-PRO-1 from CAG DNA duplex, counter-screen for rCAG RNA repeat binder project, biochemical, fluorescence, TO-PRO-1 dye, d(CAG) DNA oligo (AID 652068); conditions: d(CAG) DNA oligo TO-PRO-1 dye displacement, at 3 µM, active compounds read high;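 also: 0% = DNA dye mix with DMSO and 100% = 100 µM mitoxantrone; hits displace the dye from DNA and so lower well fluorescence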
The campaign covered roughly 4,300 compounds. About 4,000 (93%) were called active. The set was probably picked from earlier hits. The list is a sample of the results.
TEST READOUT: inhibition (%)

MOLECULE	U	READOUT VALUE
COc1cccc(N2C(=O)NC(=O)/C(=C\c3ccc([N+](=O)[O-])s3)C2=O)c1	%	19.4
COc1ccc2c(c1)[C@@]13CCCCC1[C@@H](C2)NCC3 (some centres undefined)	%	-5.51
COc1ccc(N2C(=O)/C(=C/c3ccco3)C(=O)NC2=S)cc1	%	61.4
O=C1NC(=O)N(Cc2ccco2)C(=O)/C1=C\c1ccc(-c2ccc(F)cc2)o1	%	13.1
